# system-under-test: T1, ZFP SBS#891 (synthetic)
# T1 chain: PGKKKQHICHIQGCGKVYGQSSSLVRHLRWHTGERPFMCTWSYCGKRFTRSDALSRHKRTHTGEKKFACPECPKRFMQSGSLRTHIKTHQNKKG
# test: EMSA
# applied-conditions: tags: MBP fusion
pKd: −log10 of the molar value.
measurement-name: pKd

1. TCAGTGGTAT (dsDNA) DNA 1: TCAGTGGTAT DNA 2: ATACCACTGA    7.73
